target: wild-type LRRK2 (Homo sapiens); construct: DNA tag for qPCR detection (not a peptide; the protein part that carries it is not described); made in house; host or cells: HEK 293 cells (the same paragraph also describes T7 phage grown in E. coli BL21); experiment: Inhibitory activity against LRRK2: competition binding to ligand-affinity beads, DNA-tagged kinase quantitated by qPCR; settings: 100 nM compound; % of ctrl; read-out: Remaining kinase activity(%) at 100 nM LRRK2(WT)
Sequence (Q5S007 970-2527): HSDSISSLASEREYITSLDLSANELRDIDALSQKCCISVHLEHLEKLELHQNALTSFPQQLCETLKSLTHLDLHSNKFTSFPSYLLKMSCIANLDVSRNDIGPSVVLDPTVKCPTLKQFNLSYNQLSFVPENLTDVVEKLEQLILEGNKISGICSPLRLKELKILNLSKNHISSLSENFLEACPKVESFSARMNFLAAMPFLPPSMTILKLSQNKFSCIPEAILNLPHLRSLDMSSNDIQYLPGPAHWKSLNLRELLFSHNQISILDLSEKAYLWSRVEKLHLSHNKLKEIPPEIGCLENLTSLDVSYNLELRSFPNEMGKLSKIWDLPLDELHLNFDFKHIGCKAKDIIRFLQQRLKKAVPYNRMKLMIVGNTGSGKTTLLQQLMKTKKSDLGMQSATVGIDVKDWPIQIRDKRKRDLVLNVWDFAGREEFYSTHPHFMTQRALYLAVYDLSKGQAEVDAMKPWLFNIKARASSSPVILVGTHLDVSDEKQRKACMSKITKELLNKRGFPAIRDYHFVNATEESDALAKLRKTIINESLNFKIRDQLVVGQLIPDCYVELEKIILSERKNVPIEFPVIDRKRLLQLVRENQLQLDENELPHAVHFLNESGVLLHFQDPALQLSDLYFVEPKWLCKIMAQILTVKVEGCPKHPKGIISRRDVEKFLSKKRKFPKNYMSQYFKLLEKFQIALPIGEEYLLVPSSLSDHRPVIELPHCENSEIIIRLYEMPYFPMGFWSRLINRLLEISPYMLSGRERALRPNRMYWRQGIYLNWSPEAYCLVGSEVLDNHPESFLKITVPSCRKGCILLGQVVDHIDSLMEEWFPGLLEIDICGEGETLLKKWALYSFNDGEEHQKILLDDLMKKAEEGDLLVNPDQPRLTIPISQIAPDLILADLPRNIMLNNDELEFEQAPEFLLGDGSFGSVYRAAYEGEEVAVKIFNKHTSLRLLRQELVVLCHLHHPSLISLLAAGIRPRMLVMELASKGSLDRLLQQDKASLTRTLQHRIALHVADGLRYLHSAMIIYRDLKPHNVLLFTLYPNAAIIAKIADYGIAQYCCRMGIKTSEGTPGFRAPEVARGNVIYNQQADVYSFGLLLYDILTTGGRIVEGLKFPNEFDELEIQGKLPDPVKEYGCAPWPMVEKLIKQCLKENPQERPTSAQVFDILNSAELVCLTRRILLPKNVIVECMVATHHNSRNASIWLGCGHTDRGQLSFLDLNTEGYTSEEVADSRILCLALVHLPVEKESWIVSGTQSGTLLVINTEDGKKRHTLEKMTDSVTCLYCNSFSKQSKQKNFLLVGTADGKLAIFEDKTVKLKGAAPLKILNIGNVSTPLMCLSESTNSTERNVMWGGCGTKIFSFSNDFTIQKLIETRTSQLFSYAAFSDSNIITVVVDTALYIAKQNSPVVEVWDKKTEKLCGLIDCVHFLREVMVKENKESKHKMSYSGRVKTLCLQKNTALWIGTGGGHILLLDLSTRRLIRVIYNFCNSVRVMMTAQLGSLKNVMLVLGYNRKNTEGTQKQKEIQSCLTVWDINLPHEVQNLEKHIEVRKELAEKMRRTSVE
Assay Readout: remaining binding at 0.1 µM

Solved entries:
# Compound, Measurement Target, remaining binding at 0.1 µM
data = [
    ("COc1cc(C(=O)N2CCOCC2)ccc1Nc1ncc(Cl)c(-c2cccc([N+](=O)[O-])c2)n1 [Comparative Compound 3, reference compound]", "wild-type LRRK2 (Homo sapiens)", "≥ 50%"),
    ("COc1ccc(Cn2cc(-c3nc(Nc4ccc(C(=O)N5CCOCC5)cc4OC)ncc3Cl)cn2)cc1", "wild-type LRRK2 (Homo sapiens)", "< 30%"),
]

Moving on to another compound below.
remaining binding at 0.1 µM for COc1cc(C(=O)N2CCOCC2)ccc1Nc1ncc(Cl)c(-c2cnn(C(F)F)c2)n1 is < 50%

###

compounds and their reported remaining binding at 0.05 µM
target: wild-type LRRK2 (Homo sapiens); construct: DNA tag for qPCR detection (not a peptide; the protein part that carries it is not described); made in house; host or cells: HEK 293 cells (the same paragraph also describes T7 phage grown in E. coli BL21); experiment: Inhibitory activity against LRRK2: competition binding to ligand-affinity beads, DNA-tagged kinase quantitated by qPCR; conditions: 50 nM compound; % of ctrl; read-out: LRRK2(WT) Remaining kinase activity(%) at 50 nM

Solved entries:
# Compound, Assay Readout, Measured Value
records = [
    ("COc1cc(C(=O)Nc2cccc(NS(C)(=O)=O)c2)ccc1Nc1ncc(Cl)c(-c2cnn(C(C)C)c2)n1", "remaining binding at 0.05 µM", "< 50%"),
    ("COc1cc(C(=O)Nc2cc(C)c(OC)c(C)c2)ccc1Nc1ncc(Cl)c(-c2cnn(C(C)C)c2)n1", "remaining binding at 0.05 µM", "< 50%"),
    ("COc1cc(C(=O)N2CCN(C)CC2)ccc1Nc1ncc(Cl)c(-c2cnn(C(C)C)c2)n1", "remaining binding at 0.05 µM", "< 10%"),
    ("COc1cc(C(=O)N(C)C)ccc1Nc1ncc(Cl)c(-c2cnn(C(C)C)c2)n1", "remaining binding at 0.05 µM", "< 50%"),
    ("COc1cc(C(=O)N2CCC(N3CCCC3)CC2)ccc1Nc1ncc(Cl)c(-c2cnn(C(C)C)c2)n1", "remaining binding at 0.05 µM", "< 10%"),
]

remaining binding at 0.05 µM for wild-type LRRK2 (Homo sapiens) with input COc1cc(C(=O)NCC(OC)OC)ccc1Nc1ncc(Cl)c(-c2cnn(C(C)C)c2)n1 equals < 50%

remaining binding at 0.05 µM for wild-type LRRK2 (Homo sapiens) with input COc1cc(C(=O)N2CCN(C)CC2)ccc1Nc1ncc(Cl)c(-c2cnn(C)c2)n1 equals < 30%

remaining binding at 0.05 µM for wild-type LRRK2 (Homo sapiens) with input COc1cc(C(=O)NCc2ccc(Cl)nc2)ccc1Nc1ncc(Cl)c(-c2cnn(C(C)C)c2)n1 equals < 50%

remaining binding at 0.05 µM for wild-type LRRK2 (Homo sapiens) with input COc1cc(C(=O)NCc2cccc(O)c2)ccc1Nc1ncc(Cl)c(-c2cnn(C(C)C)c2)n1 equals < 30%

remaining binding at 0.05 µM for wild-type LRRK2 (Homo sapiens) with input CCC(NC(=O)c1ccc(Nc2ncc(Cl)c(-c3cnn(C(C)C)c3)n2)c(OC)c1)c1ccccc1 (stereo not drawn) equals < 50%

remaining binding at 0.05 µM for wild-type LRRK2 (Homo sapiens) with input COc1cc(C(=O)N2CC3CN(C)CC3C2)ccc1Nc1ncc(Cl)c(-c2cnn(C(C)C)c2)n1 (stereo not drawn) equals < 10%

remaining binding at 0.05 µM for wild-type LRRK2 (Homo sapiens) with input CCN(C)C1CCN(C(=O)c2ccc(Nc3ncc(Cl)c(-c4cnn(C(C)C)c4)n3)c(OC)c2)CC1 equals < 10%

remaining binding at 0.05 µM for wild-type LRRK2 (Homo sapiens) with input COc1cc(C(=O)N(C)CCO)ccc1Nc1ncc(Cl)c(-c2cnn(C(C)C)c2)n1 equals < 30%

remaining binding at 0.05 µM for wild-type LRRK2 (Homo sapiens) with input COc1cc(C(=O)N2CCC3(CCOCC3)CC2)ccc1Nc1ncc(Cl)c(-c2cnn(C(C)C)c2)n1 equals < 30%

remaining binding at 0.05 µM for wild-type LRRK2 (Homo sapiens) with input COc1cc(C(=O)NCc2cccc(N)c2)ccc1Nc1ncc(Cl)c(-c2cnn(C(C)C)c2)n1 equals < 50%
